Tested on: HeLa
Assay: In vitro cell growth inhibition, resazurin viability assay
Format: cell-based, human
Details: Homo sapiens; 72 h, resazurin; mean ± SE
MEASUREMENT KIND: IC50

>  <GIVEN SMILES>
CCCc1ccc(Nc2nc3nccc(-c4cc(OC)c(OC)c(OC)c4)n3n2)cc1

>  <SYSTEM TESTED>
HeLa

>  <IC50>
> 10 µM

$$$$
>  <GIVEN SMILES>
COc1cc(-c2ccnc3nc(NCc4ccc5c(c4)OCO5)nn23)cc(OC)c1OC

>  <SYSTEM TESTED>
HeLa

>  <IC50>
> 10 µM

$$$$

The recorded IC50 for entry COc1cc(-c2ccnc3nc(NCCCc4ccccc4)nn23)cc(OC)c1OC equals > 10 µM

---

MEASUREMENT KIND: melting point

The recorded melting point for entry COc1ccc(CNc2nc3nccc(-c4cc(OC)c(OC)c(OC)c4)n3n2)cc1 equals 190 to 192 °C

The recorded melting point for entry COc1cc(-c2ccnc3nc(NCCc4ccccc4)nn23)cc(OC)c1OC equals 138 to 139 °C

The recorded melting point for entry COc1cc(-c2ccnc3nc(Nc4ccccc4)nn23)cc(OC)c1OC equals 235 to 236 °C

The recorded melting point for entry COc1cc(-c2ccnc3nc(Nc4ccc(C)c(C)c4)nn23)cc(OC)c1OC equals 189 to 190 °C

The recorded melting point for entry CCOc1ccc(Nc2nc3nccc(-c4cc(OC)c(OC)c(OC)c4)n3n2)cc1 equals 205 to 207 °C

---

MEASUREMENT KIND: melting point

// solved cases for melting point follow
>  <GIVEN SMILES>
CCCc1ccc(Nc2nc3nccc(-c4cc(OC)c(OC)c(OC)c4)n3n2)cc1

>  <melting point>
185 to 187 °C

$$$$
>  <GIVEN SMILES>
COc1cc(-c2ccnc3nc(NCc4ccc(C)cc4)nn23)cc(OC)c1OC

>  <melting point>
156 to 158 °C

$$$$
>  <GIVEN SMILES>
COc1cc(-c2ccnc3nc(Nc4ccc(F)cc4)nn23)cc(OC)c1OC

>  <melting point>
234 to 235 °C

$$$$

The recorded melting point for entry COc1cc(-c2ccnc3nc(NCCCc4ccccc4)nn23)cc(OC)c1OC equals 98 to 100 °C

The recorded melting point for entry COc1ccc(Nc2nc3nccc(-c4cc(OC)c(OC)c(OC)c4)n3n2)cc1 equals 213 to 215 °C

---

System: HeLa
Assay: In vitro cell growth inhibition, resazurin viability assay
Type: cell-based, human
Conditions: Homo sapiens; 72 h, resazurin; mean ± SE
For each record, check the reported IC50: if it is below 0.2 µM write MET, else write NOT MET.

>  <MOLECULE>
COc1cc(-c2ccnc3nc(Nc4cccnc4)nn23)cc(OC)c1OC

>  <CLASS LABEL>
NOT MET

$$$$
>  <MOLECULE>
COc1cc(-c2ccnc3nc(Nc4ccc(C)c(C)c4)nn23)cc(OC)c1OC

>  <CLASS LABEL>
MET

$$$$
>  <MOLECULE>
COc1cc(-c2ccnc3nc(Nc4ccc(F)cc4)nn23)cc(OC)c1OC

>  <CLASS LABEL>
NOT MET

$$$$
>  <MOLECULE>
CCOc1ccc(Nc2nc3nccc(-c4cc(OC)c(OC)c(OC)c4)n3n2)cc1

>  <CLASS LABEL>
NOT MET

$$$$

INPUT: Report whether reported IC50 is lower than 0.2 µM (strictly) for COc1cc(-c2ccnc3nc(NCc4ccc(Cl)cc4)nn23)cc(OC)c1OC
OUTPUT: NOT MET

INPUT: Report whether reported IC50 is lower than 0.2 µM (strictly) for CCc1ccc(Nc2nc3nccc(-c4cc(OC)c(OC)c(OC)c4)n3n2)cc1
OUTPUT: NOT MET

INPUT: Report whether reported IC50 is lower than 0.2 µM (strictly) for COc1ccc(/C=C\c2cc(OC)c(OC)c(OC)c2)cc1O [CA-4, combretastatin A-4, reference compound]
OUTPUT: MET

INPUT: Report whether reported IC50 is lower than 0.2 µM (strictly) for COc1cc(-c2ccnc3nc(Nc4ccc5c(c4)OCCO5)nn23)cc(OC)c1OC
OUTPUT: NOT MET

---

Readings of IC50 for the listed compounds
Test system: HeLa
Experiment: In vitro cell growth inhibition, resazurin viability assay
Assay type: cell-based, human
Settings: Homo sapiens; 72 h, resazurin; mean ± SE
Numeric answer only, unit µM assumed.

// solved cases for IC50 follow
>  <GIVEN SMILES>
COc1cc(-c2ccnc3nc(Nc4ccc(C)cc4)nn23)cc(OC)c1OC

>  <SYSTEM TESTED>
HeLa

>  <IC50, µM>
0.038

$$$$
>  <GIVEN SMILES>
COc1cccc(Nc2nc3nccc(-c4cc(OC)c(OC)c(OC)c4)n3n2)c1

>  <SYSTEM TESTED>
HeLa

>  <IC50, µM>
0.44

$$$$
>  <GIVEN SMILES>
COc1cc(-c2ccnc3nc(Nc4ccc(C(C)C)cc4)nn23)cc(OC)c1OC

>  <SYSTEM TESTED>
HeLa

>  <IC50, µM>
4.7

$$$$

Turning now to a further compound:
The recorded IC50 for entry COc1cc(-c2ccnc3nc(Nc4cccc(C)c4)nn23)cc(OC)c1OC equals 0.39

---

Readings of melting point for the listed molecules

// solved cases for melting point follow
>  <MOLECULE>
COc1cc(-c2ccnc3nc(NCc4ccccc4)nn23)cc(OC)c1OC [Compound 3p]

>  <melting point>
144 to 146 °C

$$$$
>  <MOLECULE>
COc1cc(-c2ccnc3nc(NCc4ccc(Cl)cc4)nn23)cc(OC)c1OC [Compound 3q]

>  <melting point>
171 to 173 °C

$$$$

The recorded melting point for entry CCc1ccc(Nc2nc3nccc(-c4cc(OC)c(OC)c(OC)c4)n3n2)cc1 [Compound 3h] equals 199 to 200 °C

---

Test system: Bovine brain tubulin
Experiment: Inhibition of [3H]colchicine binding to tubulin
Conditions: tubulin 0.5 µM, [3H]colchicine 5 µM, tested compound 5 µM
Decision: Colchicine Binding % Inhibition ± SD >= 40% yields Met, all other cases yield Not met.

Solved cases (3 shown):
>  <MOLECULE>
COc1ccc(/C=C\c2cc(OC)c(OC)c(OC)c2)cc1O [CA-4, combretastatin A-4, reference compound]

>  <CLASS LABEL>
Met

$$$$
>  <MOLECULE>
CCc1ccc(Nc2nc3nccc(-c4cc(OC)c(OC)c(OC)c4)n3n2)cc1

>  <CLASS LABEL>
Not met

$$$$
>  <MOLECULE>
COc1cc(-c2ccnc3nc(Nc4ccc(C)c(C)c4)nn23)cc(OC)c1OC

>  <CLASS LABEL>
Not met

$$$$

We next turn to a different molecule, shown below.
INPUT: Answer whether Colchicine Binding % Inhibition ± SD of COc1cc(-c2ccnc3nc(Nc4ccc(C)cc4)nn23)cc(OC)c1OC is greater than or equal to 40%.
OUTPUT: Met

---

Readings of melting point for the listed compounds

// solved cases for melting point follow
>  <COMPOUND>
COc1cc(-c2ccnc3nc(Nc4cc(C)cc(C)c4)nn23)cc(OC)c1OC [Compound 3g]

>  <melting point>
228 to 230 °C

$$$$
>  <COMPOUND>
COc1cc(-c2ccnc3nc(Nc4ccc5c(c4)OCO5)nn23)cc(OC)c1OC [Compound 3n]

>  <melting point>
234 to 236 °C

$$$$
>  <COMPOUND>
COc1cc(-c2ccnc3nc(Nc4cccnc4)nn23)cc(OC)c1OC [Compound 3b]

>  <melting point>
172 to 174 °C

$$$$

The recorded melting point for entry COc1cc(-c2ccnc3nc(Nc4ccc5c(c4)OCCO5)nn23)cc(OC)c1OC [Compound 3o] equals 212 to 214 °C

The recorded melting point for entry COc1cc(-c2ccnc3nc(NCc4ccc5c(c4)OCO5)nn23)cc(OC)c1OC [Compound 3t] equals 233 to 235 °C

The recorded melting point for entry COc1cccc(Nc2nc3nccc(-c4cc(OC)c(OC)c(OC)c4)n3n2)c1 [Compound 3l] equals 165 to 166 °C

The recorded melting point for entry COc1cc(-c2ccnc3nc(Nc4cccc(C)c4)nn23)cc(OC)c1OC [Compound 3e] equals 229 to 230 °C

The recorded melting point for entry COc1cc(-c2ccnc3nc(Nc4ccc(C(C)C)cc4)nn23)cc(OC)c1OC [Compound 3j] equals 212 to 214 °C
